System: Plasmodium berghei
procedure-text: Screen against P. berghei liver stage (PbLuc), transformed with Luciferase, at 10uM
Assay type: functional, HepG2
details: tested at 10 uM
Hit rate of the full screen: of about 69,000 compounds, about 8,600 (12%) showed an effect of 50% or more. What follows is part of a selection rich in strong results, with near analogues and random picks from the rest.
Quick reference for INHIBITION among some compounds
The reply should be a number in %, with the unit left off.

Would you please look over these solved cases?
>  <compound>
CC(C)CC(=O)N1C[C@@H]2CCN(c3cnccn3)C[C@@H]2C1

>  <obs-value>
3.81

$$$$
>  <compound>
Cc1nc(CN2CCC(N(C)Cc3nnc(C4CC4)n3C)C2)cs1 (stereo not given)

>  <obs-value>
7.12

$$$$
>  <compound>
CC(NC(=O)c1ccc(Cl)cc1)c1nnc(SCC(N)=O)n1C (stereo not given)

>  <obs-value>
12.315

$$$$
>  <compound>
Cc1[nH]c2ccccc2c1-c1ccnc(N[C@@H](C)CO)n1

>  <obs-value>
85.7

$$$$
>  <compound>
Cn1nccc1-c1cnc2n1CCNC21CCN(C(=O)C2(C)CC2)CC1

>  <obs-value>
13.1

$$$$

Incoming: Param item = Cc1ncc(C(=O)N2CCCC(C(=O)c3nccn3C)C2)c(O)n1 (stereo not given) ; retrieve measured INHIBITION.
Outgoing: -6.01

Incoming: Param item = O=C(Cc1ccccc1F)N1CCCCC1c1ccn2ccnc2n1 (stereo not given) ; retrieve measured INHIBITION.
Outgoing: 51.5

Incoming: Param item = CN(C)c1cc2c(nn1)CCN(C(=O)C1CCCc3ccccc31)C2 (stereo not given) ; retrieve measured INHIBITION.
Outgoing: 5.03

Incoming: Param item = COCCN1C(=O)CO[C@H]2CN(S(=O)(=O)c3ccccc3)C[C@H]21 ; retrieve measured INHIBITION.
Outgoing: -6.3

Incoming: Param item = CCOc1ccc(C(=O)NCCCNc2ncccn2)cc1 ; retrieve measured INHIBITION.
Outgoing: 41.5
